# credit: ChEMBL document CHEMBL1781898

test: Absolute bioavailability in rat; type: ADME, organism-based; conditions: in vivo
OBSERVABLE: bioavailability (%)

{"columns": ["CHEMICAL_SMILES", "ASSAY_RESULT"],
 "data": [
  ["Cc1noc(C)c1CCC1CCN(S(=O)(=O)CC2(N(O)C=O)CCOCC2)CC1", 45]
]}

###

experiment: Free drug level in dog; type: ADME, organism-based, Canis lupus familiaris; conditions: in vivo
Items are presented alongside their recorded fraction unbound.

{"columns": ["CHEMICAL_SMILES", "QUAL", "fraction unbound"],
 "data": [
  ["Cc1noc(C)c1CCC1CCN(S(=O)(=O)CC2(N(O)C=O)CCOCC2)CC1", ">", 0.5],
  ["Cc1noc(C)c1CCC1CCN(S(=O)(=O)C[C@](C)(C[C@H](C)c2ncc(F)cn2)N(O)C=O)CC1", "=", 0.25]
]}

###

assay: Inhibition of aggrecanase activity in IL-1-stimulated human osteoarthritis cartilage explant assessed as inhibition of aggrecan degradation measuring ARGSVIL neo-peptide release
pIC50: −log10 of the molar value.

{"columns": ["CHEMICAL_SMILES", "pIC50"],
 "data": [
  ["Cc1noc(C)c1CCC1CCN(S(=O)(=O)CC2(N(O)C=O)CCOCC2)CC1", 6.92]
]}

###

biological target: Matrix metalloproteinase-9 (Homo sapiens); assay: Inhibition of recombinant human MMP-9 assessed as substrate cleavage after 20 hrs by fluorescence assay
Sequence (P14780 whole entry): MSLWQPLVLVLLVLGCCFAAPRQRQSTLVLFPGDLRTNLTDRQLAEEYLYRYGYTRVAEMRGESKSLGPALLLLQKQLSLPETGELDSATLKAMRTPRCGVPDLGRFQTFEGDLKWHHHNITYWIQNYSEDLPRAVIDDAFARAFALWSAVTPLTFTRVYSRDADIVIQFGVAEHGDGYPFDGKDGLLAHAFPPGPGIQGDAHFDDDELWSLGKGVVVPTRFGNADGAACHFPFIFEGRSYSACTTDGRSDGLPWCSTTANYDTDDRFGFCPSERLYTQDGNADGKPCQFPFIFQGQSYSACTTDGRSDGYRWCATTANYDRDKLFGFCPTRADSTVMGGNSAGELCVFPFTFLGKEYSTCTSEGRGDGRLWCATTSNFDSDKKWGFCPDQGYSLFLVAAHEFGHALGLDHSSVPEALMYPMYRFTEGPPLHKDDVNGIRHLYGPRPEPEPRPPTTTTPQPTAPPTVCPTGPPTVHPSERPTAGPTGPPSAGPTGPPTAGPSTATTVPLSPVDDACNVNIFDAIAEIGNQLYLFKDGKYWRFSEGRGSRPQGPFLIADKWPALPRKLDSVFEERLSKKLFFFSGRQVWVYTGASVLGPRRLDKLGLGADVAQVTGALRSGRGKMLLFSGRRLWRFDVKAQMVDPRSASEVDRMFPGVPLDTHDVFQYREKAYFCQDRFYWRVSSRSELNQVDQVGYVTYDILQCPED
Items are presented alongside their recorded IC50.

{"columns": ["COMPOUND", "IC50"],
 "data": [
  ["Cc1cc(S(C)(=O)=O)ccc1CCC1CCN(S(=O)(=O)CC2(N(O)C=O)CCOCC2)CC1", "> 10 µM"],
  ["Cc1noc(C)c1CCC1CCN(S(=O)(=O)CC2(N(O)C=O)CCN(C(=O)C3CCC3)CC2)CC1", "> 10 µM"],
  ["Cc1noc(C)c1CCC1CCN(S(=O)(=O)CC2(N(O)C=O)CCN(C(=O)N3CCC3)CC2)CC1", "> 10 µM"],
  ["Cc1noc(C)c1CCC1CCN(S(=O)(=O)CC2(N(O)C=O)CCOCC2)CC1", "> 25 µM"],
  ["Cc1noc(C)c1CCC1CCN(S(=O)(=O)CC2(N(O)C=O)CCOC(C)(C)C2)CC1 (centres undefined)", "> 10 µM"],
  ["Cc1ncccc1CCC1CCN(S(=O)(=O)CC2(N(O)C=O)CCOCC2)CC1", "> 10 µM"],
  ["Cc1cccnc1CCC1CCN(S(=O)(=O)CC2(N(O)C=O)CCOCC2)CC1", "8.5 µM"],
  ["Cc1cc(F)ccc1CCC1CCN(S(=O)(=O)CC2(N(O)C=O)CCOCC2)CC1", "3.1 µM"],
  ["Cc1noc(C)c1CCC1CCN(S(=O)(=O)CC2(N(O)C=O)CCC(F)(F)CC2)CC1", "> 10 µM"]
]}

###

target: Matrix metalloproteinase-9 (Homo sapiens); assay: Inhibition of recombinant human MMP-9 assessed as substrate cleavage after 20 hrs by fluorescence assay
Items are presented alongside their recorded IC50.
OBSERVABLE: IC50

{"columns": ["CHEMICAL_SMILES", "SYSTEM", "ASSAY_RESULT"],
 "data": [
  ["Cc1cc(Cl)ccc1CCC1CCN(S(=O)(=O)CC2(N(O)C=O)CCOCC2)CC1", "Matrix metalloproteinase-9 (Homo sapiens)", "1.2 µM"],
  ["Cc1cc(CCC2CCN(S(=O)(=O)CC3(N(O)C=O)CCOCC3)CC2)c(C)cn1", "Matrix metalloproteinase-9 (Homo sapiens)", "> 100 µM"],
  ["Cc1nsc(C)c1CCC1CCN(S(=O)(=O)CC2(N(O)C=O)CCOCC2)CC1", "Matrix metalloproteinase-9 (Homo sapiens)", "> 10 µM"],
  ["Cc1noc(C)c1CCC1CCN(S(=O)(=O)CC2(N(O)C=O)CCN(S(C)(=O)=O)CC2)CC1", "Matrix metalloproteinase-9 (Homo sapiens)", "> 10 µM"],
  ["Cc1cnc(C)c(CCC2CCN(S(=O)(=O)CC3(N(O)C=O)CCOCC3)CC2)c1", "Matrix metalloproteinase-9 (Homo sapiens)", "> 10 µM"],
  ["CS(=O)(=O)c1ccc(CCC2CCN(S(=O)(=O)CC3(N(O)C=O)CCOCC3)CC2)c(C2CC2)c1", "Matrix metalloproteinase-9 (Homo sapiens)", "> 10 µM"],
  ["CC(=O)N1CCC(CS(=O)(=O)N2CCC(CCc3c(C)noc3C)CC2)(N(O)C=O)CC1", "Matrix metalloproteinase-9 (Homo sapiens)", "> 10 µM"],
  ["Cc1cc(C)c(CCC2CCN(S(=O)(=O)CC3(N(O)C=O)CCOCC3)CC2)cn1", "Matrix metalloproteinase-9 (Homo sapiens)", "8.9 µM"],
  ["Cc1ccncc1CCC1CCN(S(=O)(=O)CC2(N(O)C=O)CCOCC2)CC1", "Matrix metalloproteinase-9 (Homo sapiens)", "> 10 µM"],
  ["Cc1noc(C)c1CCC1CCN(S(=O)(=O)CC2(N(O)C=O)CCCCC2)CC1", "Matrix metalloproteinase-9 (Homo sapiens)", "> 10 µM"],
  ["Cc1ccccc1CCC1CCN(S(=O)(=O)CC2(N(O)C=O)CCOCC2)CC1", "Matrix metalloproteinase-9 (Homo sapiens)", "> 1.8 µM"],
  ["Cc1noc(C)c1CCC1CCN(S(=O)(=O)CC2(N(O)C=O)CCCCCC2)CC1", "Matrix metalloproteinase-9 (Homo sapiens)", "> 10 µM"],
  ["O=CN(O)C1(CS(=O)(=O)N2CCC(CCc3ccccc3)CC2)CCOCC1", "Matrix metalloproteinase-9 (Homo sapiens)", "0.67 µM"],
  ["Cc1noc(C)c1CCC1CCN(S(=O)(=O)CC2(N(O)C=O)CCN(C)CC2)CC1", "Matrix metalloproteinase-9 (Homo sapiens)", "> 10 µM"],
  ["Cc1noc(C)c1CCC1CCN(S(=O)(=O)CC2(N(O)C=O)CCS(=O)(=O)CC2)CC1", "Matrix metalloproteinase-9 (Homo sapiens)", "> 10 µM"],
  ["Cc1noc(C)c1CCC1CCN(S(=O)(=O)CC2(N(O)C=O)CCC2)CC1", "Matrix metalloproteinase-9 (Homo sapiens)", "> 10 µM"],
  ["Cc1noc(C)c1CCC1CCN(S(=O)(=O)CC2(N(O)C=O)CCCC2)CC1", "Matrix metalloproteinase-9 (Homo sapiens)", "> 10 µM"]
]}
